- Tested on: RXF 393 renal
- assay.name: NCI tumour cell line growth inhibition, 48 h; in the data active means GI50 below about 0.43 µM; inactive means the rest
Classes used: 1 (active), 0 (inactive)

compound: O=C1Nc2ccccc2/C1=C\c1c(-c2ccccc2)nc2sccn12
class.assignment: 0

compound: CN1CCN(C(=O)[C@@]2(C)CC[C@]3(C)CC[C@]4(C)C(=CC[C@@H]5[C@@]6(C)CCC(=O)NC(C)(C)[C@@H]6CC[C@]54C)[C@@H]3C2)CC1
class.assignment: 0

compound: Cn1cc(C2=C(c3c4n(c5ccccc35)CCNC4)C(=O)NC2=O)c2ccccc21
class.assignment: 0

compound: CCn1c(-c2nonc2N)nc2c(C#CC(C)(C)O)ncc(OC3CCNCC3)c21
class.assignment: 0

compound: CS(=O)(=O)N1CCC(n2c(=O)c(Oc3ccc(F)cc3F)cc3cnc(NC4CCOCC4)nc32)CC1
class.assignment: 0

compound: COc1cc(OC)cc(Oc2cnc3cc(N)cc(N)c3n2)c1
class.assignment: 0

compound: O=[N+]([O-])c1ccc(/C=C/c2nc3ccc(Cl)cc3[nH]2)cc1
class.assignment: 0

compound: NC(=O)c1cccc2c(N[C@H](CN3CCC3)c3ccc(Cl)c(C(F)(F)F)c3)ncnc12
class.assignment: 1

compound: CN1CCN(Cc2ccc(NC(=O)c3cncc(C#Cc4c(N)ncc5ccc(C#N)cc45)c3)cc2C(F)(F)F)CC1
class.assignment: 0

compound: COc1cc2c3c(n(CCCN4CCNCC4)c(=O)c2cc1OC)-c1cc2c(cc1C3=O)OCO2
class.assignment: 0

compound: CNS(=O)(=O)OCC1OC(n2cnc3cncnc32)C(O)C1O (stereo unspecified)
class.assignment: 0

====

- Tested on: HCC-2998 colon
- assay.name: NCI tumour cell line growth inhibition, 48 h
Each item that follows carries a reported TGI.
measurement.type: TGI (µM)

molecule: CC(=O)OCC1OC(n2cnc3nc(Br)[nH]c(=O)c32)C(OC(C)=O)C1OC(C)=O (stereo unspecified)
rel: >
observed.value: 100
--
molecule: C[C@@H](N)COc1ccc(-c2cnc3ccc(N[C@H](C)c4cccc(F)c4)nn23)cc1
rel: =
observed.value: 4.97
--
molecule: COc1cccc2c1NC(=O)Cc1c-2[nH]c2ccccc12
rel: >
observed.value: 100
--
molecule: O=C(Cn1c(C(=O)c2ccc(Cl)cc2)nc(-c2ccc(Cl)cc2)c1-c1ccc(Cl)cc1)c1ccccc1
rel: >
observed.value: 100
--
molecule: Cc1[nH]c(=O)nc(N/N=C/c2ccc(O)cc2)c1C(=O)Nc1ccc(O)cc1
rel: >
observed.value: 100
--
molecule: CCOC(=O)c1nc2ccc(OC)cc2c2c1Cc1ccccc1-2
rel: >
observed.value: 100
--
molecule: N#CCCN(CCC#N)c1ccc(/C=C(/NC(=O)c2cc([N+](=O)[O-])ccc2Cl)C(=O)NN)cc1
rel: >
observed.value: 100
--
molecule: O=[N+]([O-])c1cc(-c2nc(=S)[nH][nH]2)ccc1O
rel: >
observed.value: 100
--
molecule: N#Cc1c(N)oc(-c2ccc([N+](=O)[O-])cc2)c1C#N
rel: >
observed.value: 100
--
molecule: Nc1nc(N)c(CCCCc2ccccc2)c(C=O)n1
rel: =
observed.value: 76.6
--
molecule: O=C(c1ccccc1)N1CCN(C(=S)NC2CCCCC2)C1=S
rel: =
observed.value: 33.1
--
molecule: O=C(O)CCCCn1ccc(=O)[nH]c1=O
rel: >
observed.value: 100
--
molecule: O=C(CN1CCCC1=O)CS(=O)(=O)c1ccccc1
rel: >
observed.value: 100
--
molecule: C[C@H](c1ccc(F)cc1CCCC(=O)O)N(c1cc(F)ccc1F)S(=O)(=O)c1ccc(Cl)cc1
rel: =
observed.value: 59.4
--
molecule: CC1=C/C=C/C(=O)O[C@@H]([C@H](C)[C@H](O)[C@@H](C)NC(=O)C(C)C)[C@H](C)/C=C/C(C)=C/[C@H]2C=CCC[C@@]2(C)\C=C\1
rel: =
observed.value: 23.5
--
molecule: COc1ccc(Nc2nc3cc(C(F)(F)F)ccc3nc2-c2ccccc2)cc1OC
rel: >
observed.value: 100
--
molecule: O=C1c2ccccc2C(=O)N1n1c(Cc2ccc(Cl)cc2)n[nH]c1=O
rel: >
observed.value: 100
--
molecule: O=[N+]([O-])c1ccc(/C=C/c2nc3ccc(Cl)cc3[nH]2)cc1
rel: =
observed.value: 88.1
--
molecule: COc1cc(OC)cc(Oc2cnc3cc(N)cc(N)c3n2)c1
rel: =
observed.value: 28.8
--
molecule: CC(C)(C)NC1=NC(C(F)(F)F)(C(F)(F)F)NC(=O)N1
rel: =
observed.value: 79
--
molecule: O=C1/C(=C/c2ccc(O)cc2)CCCC1CN1CCCCC1 (stereo unspecified)
rel: =
observed.value: 17.2
--
molecule: CC(=O)OCC12CN(C#N)C3C4COC(CC41)C1(C(=O)N(C)c4ccccc41)C32 (stereo unspecified)
rel: =
observed.value: 86.6
--
molecule: Cc1nnc(N)nc1/C=C\c1ccc(Cl)cc1Cl
rel: =
observed.value: 42.8
--
molecule: COc1cc(C2c3cc4c(cc3OC(NNC(N)=O)C2C)OCO4)cc(OC)c1OC (stereo unspecified)
rel: >
observed.value: 27.2
--
molecule: CC1=NN(C(=O)Cc2ccccc2)C(=O)/C1=C\c1ccc([N+](=O)[O-])cc1
rel: >
observed.value: 100
--
molecule: Cc1cc(=O)[nH]c(CNC(=O)c2ccc3ccccc3c2)n1
rel: >
observed.value: 100
--
molecule: COC1OCC(O)C(NC(=O)N(C)N=O)C1O (stereo unspecified)
rel: >
observed.value: 100
--
molecule: CN1CC=C(c2cc(NC(=O)Nc3ccc(Oc4ccnc(NC(=O)C5CC5)c4)c(F)c3)cc(C(F)(F)F)c2)CC1
rel: =
observed.value: 1.97
--
molecule: CCN1CCC(CC(=O)Nc2n[nH]c3nnc(-c4cccc(F)c4F)cc23)CC1
rel: >
observed.value: 25
--
molecule: CCCCCCC1N=C(N)N=C(N)N1c1cccc(Cl)c1 (stereo unspecified)
rel: =
observed.value: 11.2
--
molecule: O=Cc1cccc2ccc3ccccc3c12
rel: =
observed.value: 94
--
molecule: COC(=O)[C@H](CC(C)C)NC(=O)[C@H](Cc1ccccc1)N1CC2C=CC1C2 (stereo partly specified)
rel: >
observed.value: 100
--
molecule: COC(=O)Oc1nn(C(=O)OC)c(=O)c2ccccc12
rel: >
observed.value: 100
--
molecule: COc1cc(C2c3cc4c(cc3OC(NNc3ccccc3)C2C)OCO4)cc(OC)c1OC (stereo unspecified)
rel: =
observed.value: 3.96
--
molecule: C=C(C)[C@@H](O)[C@H](O)C[C@H](C)C1CC[C@]2(C)C1=CC[C@@H]1[C@@]3(C)CC[C@@H](OC(C)=O)C(C)(C)[C@@H]3C[C@@H](OC3OC(COC(C)=O)C(O)C(O)C3O)[C@]12C (stereo partly specified)
rel: =
observed.value: 1.69
--
molecule: CC(C)NC(=O)OCc1c(COC(=O)NC(C)C)c(-c2ccc[n+](COC(=O)Cc3ccccc3)c2)n2c1CCC2
rel: >
observed.value: 100
--
molecule: OCc1ccc(-c2csc(-c3ccc(CO)o3)c2)o1
rel: >
observed.value: 100
--
molecule: O=c1cc(-c2ccccc2)[nH]c2ncccc12
rel: >
observed.value: 42
--
molecule: O=P(O)(O)c1ccc(-c2ccc(I)cc2)cc1
rel: >
observed.value: 100
--
molecule: CS(=O)(=O)N1CCC(n2c(=O)c(Oc3ccc(F)cc3F)cc3cnc(NC4CCOCC4)nc32)CC1
rel: >
observed.value: 25
--
molecule: O=C(CN1CCN(Cc2ccccc2Cl)CC1)NC1CC(=O)c2c(Br)sc(Br)c21 (stereo unspecified)
rel: =
observed.value: 35.1
